- Experiment notes: ATG_PPRE_CIS: Attagene CIS-FACTORIAL HepG2 Assay for human Peroxisome Proliferator-activated Response Element (PPRE) (AID 2282958)
- Condition: HepG2 PPRE cis-element reporter, Attagene transcription factor profiling; actives raise or lower the signal
- Method: ATG_CIS is a cell-based, multiplexed-readout assay that uses HepG2, a human liver cell line, with measurements taken at 24 hours after chemical dosing in a 24-well plate.ATG_PPRE_CIS is one of 52 assay component(s) measured or calculated from the ATG_CIS assay. […] This assay endpoint, ATG_PPRE_CIS, was analyzed with bidirectional fitting relative to DMSO as the negative control and baseline of activity. […]
Calls of active or inactive are those of the source. How the source made its calls: active means hit-call score of the fitted dose curve at least 0.9, where 1 is the maximum; inactive means score below 0.9.
Pick from true (1) for active, false (0) for inactive when you respond.

Problem: So what was the verdict on CCCCC1CCCCC(=O)O1 (stereo unspecified) in this test?
Solution: true (1)
